Please provide measured Selectivity IC50 hDHFR /IC50 TbDHFR-TS for the entries that follow.
Assayed system: TbDHFR-TS (Trypanosoma brucei brucei, UniProt Q27783)
Construct: His tag; made in house; host or cells: E. coli
Sequence (Q27783 whole entry): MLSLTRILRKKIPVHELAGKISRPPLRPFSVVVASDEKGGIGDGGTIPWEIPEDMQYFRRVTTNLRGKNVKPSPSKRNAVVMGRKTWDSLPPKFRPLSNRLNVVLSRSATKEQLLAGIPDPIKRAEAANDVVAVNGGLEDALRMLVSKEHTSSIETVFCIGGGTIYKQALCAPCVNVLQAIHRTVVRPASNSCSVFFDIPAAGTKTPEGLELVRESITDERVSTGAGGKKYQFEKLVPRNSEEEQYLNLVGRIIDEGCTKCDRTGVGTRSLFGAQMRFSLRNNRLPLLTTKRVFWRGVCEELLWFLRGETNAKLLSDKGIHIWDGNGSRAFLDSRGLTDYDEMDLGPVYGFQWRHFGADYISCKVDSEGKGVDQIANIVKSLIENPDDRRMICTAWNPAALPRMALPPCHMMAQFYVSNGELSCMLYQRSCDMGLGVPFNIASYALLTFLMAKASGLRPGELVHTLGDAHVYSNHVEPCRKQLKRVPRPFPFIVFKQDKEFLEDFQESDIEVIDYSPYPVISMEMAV
Method description: biochemical
Assay type: biochemical
Measurement setup: ratio; PYR and CYC from Ki values
Give your answer as a number; write no unit.

Could you please provide reported Selectivity IC50 hDHFR /IC50 TbDHFR-TS for COc1ccc(N2C(N)=NC(N)=NC2(C)C)cc1 ? Thanks!
12.4

Could you please provide reported Selectivity IC50 hDHFR /IC50 TbDHFR-TS for CC1(C)N=C(N)N=C(N)N1c1ccc(O)cc1 ? Thanks!
3.19

Could you please provide reported Selectivity IC50 hDHFR /IC50 TbDHFR-TS for COc1ccc(N2C(N)=NC(NC(C)=O)=NC2(C)C)cc1 ? Thanks!
3.31

Could you please provide reported Selectivity IC50 hDHFR /IC50 TbDHFR-TS for CC1N=C(N)N=C(N)N1c1ccc(Cl)cc1 (centres unmarked) ? Thanks!
3.27

Could you please provide reported Selectivity IC50 hDHFR /IC50 TbDHFR-TS for NC1=NC2(CCCCC2)N(c2ccc(Cl)cc2)C(N)=N1 ? Thanks!
3.73
